Measured cell viability by item
- System: MARIMO;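 also: after 48 h exposure read by CellTiter-Glo luminescence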
- PROTOCOL DESCRIPTION: cell viability relative to vehicle control; higher = less cytotoxic
- MEASUREMENT PARAMETERS: 10 µM; SRSF2 genotype: SRSF2 P95H/wt
Counter-ions that a name gives are not always drawn.
Number only, in %; omit the unit.

{"MOLECULE": "COC(=O)C1=COC(OC2OC(CO)C(O)C(O)C2O)C2C(CO)=CC(O)C12 (stereo not drawn)", "MEASUREMENT KIND": "cell viability", "MEASUREMENT UNIT": "%", "REPORTED": 105}

Incoming: // Input: CNC1CCC(N(Cc2cccc(-c3ccncc3)c2)C(=O)c2sc3ccccc3c2Cl)CC1 (stereo not drawn) [Smoothened Agonist (SAG) HCl] . Output its cell viability only.
Outgoing: 53.8

Incoming: Answer with the recorded cell viability for the molecule listed here: NC(=O)/C(=C/n1cnc(-c2cc(C(F)(F)F)cc(C(F)(F)F)c2)n1)c1cncnc1
Outgoing: 15.4

Hey, just so you know, these numbers are from the supplement of paper PMC10981050.
